Data origin, for the record: ChEMBL document CHEMBL4316588

# Test: Oral bioavailability in Beagle dog at 5 mg/kg by LC-MS/MS analysis
# Type: ADME, organism-based, Canis lupus familiaris
# Conditions Used: in vivo
Measure Name: bioavailability (%)
Write down the numeric answer in % and omit the unit.

Exam item: // query bioavailability value for entry C[C@@H]1CN2c3c(cc4c(N5CC6(CC6)OC5=O)noc4c3F)CC3(C(=O)NC(=O)NC3=O)[C@H]2[C@H](C)O1
Marked response: 96.6

###

# Tested on: Staphylococcus epidermidis
# Test: Antibacterial activity against methicillin-sensitive Staphylococcus epidermidis after 18 to 20 hrs by CLSI-protocol based broth microdilution method
# Type: functional
Active and inactive are the calls of the source. The rule behind the calls is not given here.

- Compound: "C[C@@H]1CN2c3c(cc4c(N5CC6(CCC6)OC5=O)noc4c3F)CC3(C(=O)NC(=O)NC3=O)[C@H]2[C@H](C)O1"
  MIC: "0.06 to 0.25 µg/mL"
- Compound: "C[C@@H]1CN2c3c(cc4c(-n5cncn5)ncnc4c3F)CC3(C(=O)NC(=O)NC3=O)[C@H]2[C@H](C)O1 (racemic)"
  MIC: "inactive"
- Compound: "C[C@@H]1CN2c3c(cc4c(N5C(=O)OC[C@@H]5C)noc4c3F)CC3(C(=O)NS(=O)(=O)NC3=O)[C@H]2[C@H](C)O1"
  MIC: "inactive"
- Compound: "CC[C@H]1CSC(=O)N1c1noc2c(F)c3c(cc12)CC1(C(=O)NC(=O)NC1=O)[C@H]1[C@H](C)O[C@H](C)CN31"
  MIC: "0.5 to 1 µg/mL"
